Target: SARS-CoV-2 PLpro (Severe acute respiratory syndrome coronavirus 2)
MEASUREMENT NAME: Kd (nM)

>>> print(df.to_string())
                                   compound  observed_value
0  O=C([O-])[C@H](O)[C@@H](O)[C@H](O)[C@H](O)CO.O=C([O-])[C@H](O)[C@@H](O)[C@H](O)[C@H](O)CO.[Zn+2] [Zn^2+, zinc gluconate]            2170
